Target: T1, mouse PRLR on Baf3-mPRLR cells (mouse, UniProt Q08501 20-608)
T1 sequence (looked up): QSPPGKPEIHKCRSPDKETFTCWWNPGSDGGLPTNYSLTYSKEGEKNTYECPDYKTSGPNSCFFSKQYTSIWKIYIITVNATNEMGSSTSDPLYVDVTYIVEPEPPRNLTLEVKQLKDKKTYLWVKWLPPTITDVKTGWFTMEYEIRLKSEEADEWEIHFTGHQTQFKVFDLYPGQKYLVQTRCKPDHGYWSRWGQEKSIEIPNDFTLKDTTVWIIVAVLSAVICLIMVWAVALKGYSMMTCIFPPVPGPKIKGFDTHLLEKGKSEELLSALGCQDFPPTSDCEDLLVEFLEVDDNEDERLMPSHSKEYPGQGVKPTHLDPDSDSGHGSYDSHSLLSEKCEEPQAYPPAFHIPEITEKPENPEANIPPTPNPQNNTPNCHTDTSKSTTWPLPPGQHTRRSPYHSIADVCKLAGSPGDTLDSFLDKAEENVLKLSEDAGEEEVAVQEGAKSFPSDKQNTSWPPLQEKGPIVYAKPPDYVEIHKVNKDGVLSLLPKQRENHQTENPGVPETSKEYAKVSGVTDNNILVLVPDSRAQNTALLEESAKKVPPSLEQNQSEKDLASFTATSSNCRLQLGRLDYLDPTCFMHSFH
Assay: cell-based or functional assay

Binder	Modifier Sign	Baf3-mPRLR proliferation IC50 / µg/mL
Ab5 (antibody, V domains shown, murine monoclonal, isotype G2a; also called murine Ab5) VH: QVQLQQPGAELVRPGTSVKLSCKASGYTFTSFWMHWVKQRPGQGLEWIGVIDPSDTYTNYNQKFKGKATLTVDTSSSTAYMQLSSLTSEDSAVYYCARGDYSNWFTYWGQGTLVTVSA VL: DVVMTQTPLSLPVSLGDQASISCRSSQRLVHSNGNTYLHWYLQKPGQSPKLLIYKVSNRFSGVPDRFSGSGSGTDFTLKISRVEAEDLGVYFCSQSTHVPWTFGGGTKLEIK	=	1.03
LFA102 (antibody, human IgG1, kappa, V domains shown, humanized IgG1 kappa comparator (WO 2008022295)) VH: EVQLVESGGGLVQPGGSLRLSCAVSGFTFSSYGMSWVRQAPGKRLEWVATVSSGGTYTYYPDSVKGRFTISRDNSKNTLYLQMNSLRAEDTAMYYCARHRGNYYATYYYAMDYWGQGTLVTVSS VL: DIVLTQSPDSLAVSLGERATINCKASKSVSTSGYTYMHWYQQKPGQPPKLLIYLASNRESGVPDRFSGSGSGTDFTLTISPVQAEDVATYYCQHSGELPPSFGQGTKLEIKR	>	30
Ab13 (antibody, V domains shown, murine monoclonal, isotype G2a; also called murine Ab13) VH: QVQLQQPGAELVRPGTSVKLSCKASGYTFTSFWMHWVKQRPGQGLEWIGVIDPSDSHTNYNQKFKGKATLTVNTSSSTAYMHLSSLTSEDSAVYYCARGDYSNWFTYWGQGTLVTVSA VL: DVVMTQTPFSLPVSLGDQASISCRSSQSLVHSNGNTYLHWYLQKPGQSPKLLIYKVSNRFSGVPDRFSGSGSGTDFTLKISRVEAEDLELYFCSQSTHVPWTFGGGTKLEIK	=	4.69
Ab48 (antibody, human IgG1, kappa, V domains shown, humanized from Ab8; G1; also called Ab3 HC.1a and Ab3 LC.1a) VH: EVQLVQSGAEVKKPGASVKVSCKASGYTFTDYNIHWVRQAPGQGLEWIGYIYPNNDGTGYNQKFKSRATLTVDNSTSTAYMELRSLRSDDTAVYYCARGDGNYVGDMDYWGQGTTVTVSS VL: DIQMTQSPSSLSASVGDRVTITCRASENIYSYLAWYQQKPGKPPKLLVYNAKTLAEGVPSRFSGSGSGTDFTLTISSLQPEDFATYYCQHHYATPFTFGQGTKLEIKR	>	30
Ab46 (antibody, human IgG1, kappa, V domains shown, humanized from Ab8; G1; also called Ab3 HC.1 and Ab3 LC.1b) VH: EVQLVQSGAEVKKPGASVKVSCKASGYTFTDYNIHWVRQAPGQGLEWMGYIYPNNDGTGYNQKFKSRVTMTTDTSTSTAYMELRSLRSDDTAVYYCARGDGNYVGDMDYWGQGTTVTVSS VL: DIQMTQSPSSLSASVGDRVTITCRASENIYSYLAWYQQKPGKAPKLLVYNAKTLAEGVPSRFSGSGSGTDFTLTISSLQPEDFATYYCQHHYATPFTFGQGTKLEIKR	>	30
